# Measured on: UniProt:P51449
# Sequence (P51449 1-497 isoform P51449-2): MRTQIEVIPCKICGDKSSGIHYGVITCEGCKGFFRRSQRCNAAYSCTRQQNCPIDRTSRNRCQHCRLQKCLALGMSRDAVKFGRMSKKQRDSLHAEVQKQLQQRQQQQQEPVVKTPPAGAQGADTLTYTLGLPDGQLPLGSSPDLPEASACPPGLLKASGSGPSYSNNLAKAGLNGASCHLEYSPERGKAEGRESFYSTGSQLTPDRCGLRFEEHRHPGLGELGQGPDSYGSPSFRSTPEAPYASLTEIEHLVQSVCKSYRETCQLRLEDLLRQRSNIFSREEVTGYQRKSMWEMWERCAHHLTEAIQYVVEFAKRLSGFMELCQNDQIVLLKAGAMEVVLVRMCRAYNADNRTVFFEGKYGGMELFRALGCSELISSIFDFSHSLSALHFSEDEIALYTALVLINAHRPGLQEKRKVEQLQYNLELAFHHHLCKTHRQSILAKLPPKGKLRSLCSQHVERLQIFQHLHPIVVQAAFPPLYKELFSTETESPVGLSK
# Experimental details: Cofactor recruitment test (Alpha Screen, biotinylated SRC-1 peptide)
# Format: biochemical
# Condition info: read-out: signal value inhibitory rate (%) at test compound 1 μM
Readout kind: inhibition at 1 µM (%)
The response must be a number in % with no trailing unit.

The cases that follow already have their inhibition at 1 µM on record.
COc1ccc(C(=O)N[C@@H]2CCCN(C(=O)Nc3cc4c(=O)n(CC5CC5)c(=O)n(C(C)C)c4cc3F)C2)c(F)c1 [Example 291] :: 107
CC(C)n1c(=O)n(CC2CC2(F)F)c(=O)c2cc(NC(=O)N3CCO[C@@H](C(=O)Nc4ccc(C#N)c(Cl)c4)C3)c(F)cc21 (stereo partly shown) [Example 331] :: 109
COc1ccc(C(=O)N[C@@H]2CCCN(C(=O)Nc3ccc4c(c3)c(=O)n(CC3CC3)c(=O)n4C(C)C)C2)cc1 [Example 244] :: 105
CC(C)n1c(=O)n(CC2CC2)c(=O)c2cc(NC(=O)[C@@H]3CCC[C@@H]3NC(=O)c3ccc(C#N)cc3)ccc21 [Example 264] :: 110
CC(C)n1c(=O)n(CC2CC2)c(=O)c2cc(NC(=O)N3CCO[C@@H](C(=O)Nc4cc(Cl)c(C#N)cc4F)C3)c(F)cc21 [Example 347] :: 107
CC(C)n1c(=O)n(CC2CC2)c(=O)c2cc(NC(=O)N3CCC[C@@H](NC(=O)c4ccc(CNC(=O)OC(C)(C)C)cc4)C3)ccc21 [Example 274] :: 89

Entry CC(C)n1c(=O)n(CC2CC2)c(=O)c2cc(NC(=O)N3CCO[C@@H](C(=O)Nc4cc(F)c(C#N)cc4F)C3)ccc21 [Example 168] , system UniProt:P51449: what inhibition at 1 µM was measured?
108

Query for UniProt:P51449: what inhibition at 1 µM does the record show for CC(C)n1c(=O)n(CC2CC2)c(=O)c2cc(NC(=O)N3CCCC(NC(=O)c4ccc(C#N)c(Cl)c4)C3)ccc21 (stereo not shown) [Example 88] ?
102

Requested read-out inhibition at 1 µM, target or system UniProt:P51449, entry CC(C)n1c(=O)n(CC2CC2)c(=O)c2cc(NC(=O)N3CCOC(C(=O)Nc4cc(F)c(C#N)cc4F)C3)ccc21 (stereo not shown) [Example 135]
113

Kindly state the measured inhibition at 1 µM obtained for CC(C)n1c(=O)n(CC2CC2(F)F)c(=O)c2cc(NC(=O)N3CCOC(C(=O)Nc4ccc(C#N)c(Cl)c4)C3)c(F)cc21 (single isomer, unassigned) [Example 366] with UniProt:P51449.
105

Could you share what inhibition at 1 µM was measured for CC(C)n1c(=O)n(CC2CC2)c(=O)c2cc(NC(=O)N3CCOC(C(=O)Nc4ccc(C#N)c(F)c4)C3)ccc21 (stereo not shown) [Example 176] , tested on UniProt:P51449?
111

Reference source for all entries: patent US10000488B2
